I'd be grateful if you could share measured TGI for these entries.
System: MDA-MB-231 breast
assay.procedure: NCI tumour cell line growth inhibition, 384-well format
Dear colleague, please return just the value in µM, with no unit written.

Looking up CNC(=O)c1cccc2cc(Oc3ccnc4cc(OCC5(N)CC5)c(OC)cc34)ccc12 , I found its TGI recorded as 14.4

The recorded TGI for CC1(N)CCN(c2cccnc2NC(=O)c2nc(-c3ncccc3C(F)(F)F)cnc2N)CC1 is 46.9

// field: TGI; key: COc1cccc2c1ccc1nc3cccc(C(=O)N[C@H](C)CN(C)C)c3nc12 ; value = 0.393

====

Hi there, I'd appreciate the recorded GI50 for every entry that follows.
Test system: ACHN renal
assay.procedure: NCI tumour cell line growth inhibition, 384-well format

# GI50 of CNC(=O)c1cccc2cc(Oc3ccnc4cc(OCC5(N)CC5)c(OC)cc34)ccc12 = 1670 nM

Please fill in: GI50 reported for COc1cccc2c1ccc1nc3cccc(C(=O)N[C@H](C)CN(C)C)c3nc12 = 28.3 nM

For O=C(Nc1ccncc1)C(=O)c1cn(Cc2ccc(Cl)cc2)c2ccccc12 the compound record lists GI50 as < 10 nM

The recorded GI50 for entry CC1(N)CCN(c2cccnc2NC(=O)c2nc(-c3ncccc3C(F)(F)F)cnc2N)CC1 equals 22700 nM

Data origin, for the record: PubChem BioAssay (NCI)
